Values were extracted from ChEMBL document CHEMBL4765409.

Target: Tyrosine-protein phosphatase non-receptor type 11 (Homo sapiens, UniProt Q06124)
Sequence (Q06124 whole entry): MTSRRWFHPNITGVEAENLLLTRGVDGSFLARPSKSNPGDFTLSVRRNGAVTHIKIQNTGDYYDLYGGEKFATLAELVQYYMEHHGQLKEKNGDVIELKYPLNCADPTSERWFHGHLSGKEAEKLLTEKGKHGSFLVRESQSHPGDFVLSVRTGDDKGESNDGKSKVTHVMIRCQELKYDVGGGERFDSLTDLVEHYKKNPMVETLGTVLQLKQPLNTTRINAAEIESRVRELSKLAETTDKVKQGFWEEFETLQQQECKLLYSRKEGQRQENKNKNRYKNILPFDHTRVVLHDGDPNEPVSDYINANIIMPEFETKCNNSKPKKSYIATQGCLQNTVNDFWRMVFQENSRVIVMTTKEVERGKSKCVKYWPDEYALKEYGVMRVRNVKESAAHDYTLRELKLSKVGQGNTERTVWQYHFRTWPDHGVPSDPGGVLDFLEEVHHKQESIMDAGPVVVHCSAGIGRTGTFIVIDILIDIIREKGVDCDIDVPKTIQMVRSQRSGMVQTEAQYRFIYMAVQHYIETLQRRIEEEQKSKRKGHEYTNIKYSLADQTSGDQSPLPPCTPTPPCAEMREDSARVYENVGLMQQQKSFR
Assay: Inhibition of recombinant SHP2 (unknown origin) using pNPP as substrate measured after 30 mins
# key: entry, value: IC50

compound	system	IC50
COC(=O)C1=CO[C@@H](O)[C@@H]2C(CO)=CC[C@H]12	Tyrosine-protein phosphatase non-receptor type 11 (Homo sapiens, UniProt Q06124)	> 500 µM
CC(C)(C)c1ccc(Oc2ccc(NC(=O)C3=CO[C@@H](O[C@@H]4O[C@H](CO)[C@@H](O)[C@H](O)[C@H]4O)[C@@H]4C(CO)=CC[C@H]34)cc2)cc1	Tyrosine-protein phosphatase non-receptor type 11 (Homo sapiens, UniProt Q06124)	> 100 µM
O=C1C[C@@H](O[C@@H]2O[C@H](CO)[C@@H](O)[C@H](O)[C@H]2O)CO1	Tyrosine-protein phosphatase non-receptor type 11 (Homo sapiens, UniProt Q06124)	> 50 µM
COC(=O)C1=CO[C@@H](O[C@@H]2O[C@H](CO)[C@@H](O)[C@H](O)[C@H]2O)[C@@H]2C(CO)=CC[C@H]12 [GENIPOSIDE]	Tyrosine-protein phosphatase non-receptor type 11 (Homo sapiens, UniProt Q06124)	> 500 µM
CCOS(=O)(=O)/C=C/c1ccc(OCC2=CC[C@@H]3C(C(=O)Nc4ccc(Oc5ccc(Br)cc5Cl)cc4)=CO[C@@H](OCc4ccccc4)[C@H]23)cc1	Tyrosine-protein phosphatase non-receptor type 11 (Homo sapiens, UniProt Q06124)	3.97 µM
O=C(O)C1=CO[C@@H](O[C@@H]2O[C@H](COCc3ccccc3)[C@@H](OCc3ccccc3)[C@H](OCc3ccccc3)[C@H]2OCc2ccccc2)[C@@H]2C(COCc3ccccc3)=CC[C@H]12	Tyrosine-protein phosphatase non-receptor type 11 (Homo sapiens, UniProt Q06124)	3.32 µM
CCOS(=O)(=O)/C=C/c1ccc(OCC2=CC[C@@H]3C(C(=O)Nc4ccc(Oc5ccc(-c6ccccc6)cc5)cc4)=CO[C@@H](OC)[C@H]23)cc1	Tyrosine-protein phosphatase non-receptor type 11 (Homo sapiens, UniProt Q06124)	1.24 µM
CCc1ccccc1NC(=O)C1=CO[C@@H](O[C@@H]2O[C@H](CO)[C@@H](O)[C@H](O)[C@H]2O)[C@@H]2C(CO)=CC[C@H]12	Tyrosine-protein phosphatase non-receptor type 11 (Homo sapiens, UniProt Q06124)	> 100 µM
